Assay Target: T1, recombinant human CCL2/MCP1 (human, UniProt P13500 24-99, 125I label in the radioligand assays)
T1 construct: Immunogen and selection antigen was the Mucin stalk Chimera (R&D 979-MC/CF)
T1 sequence (P13500 24-99 limits assumed): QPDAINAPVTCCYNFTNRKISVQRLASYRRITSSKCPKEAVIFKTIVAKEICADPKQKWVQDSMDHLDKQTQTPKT
Procedure Text: ELISA, periplasmic extract on coated CCL2, anti-myc detection
Property: binding result

>  <Binder>
Nanobody 15H4 (VHH, llama VHH against CCL2; not shown: C-terminal c-myc tag and (His)6 tag coded by the vector) VHH: EVQLVESGGGLVQAGGSLRLSCAASGLTFSTYPMGWFRQAPGKEREFVAAINSGGSSTYYADSVKGRFTISRDNAKNTVYLQMNSLKPEDTAVYSCAVKIYSGSYSSPPGYNYWGQGTQVTVSS

>  <Recorded Value>
binds

$$$$
>  <Binder>
Nanobody 8A7 (VHH, llama VHH against CCL2; not shown: C-terminal c-myc tag and (His)6 tag coded by the vector) VHH: EVQLVESGGGLVQAGGSLRLSCAASGRTFSSYRMGWFRQAPEKEREFVAVISRSGGSTFYSNSVKGRFTISRDNAKNTVYLQMNSLKPEDTAVYYCAAGAQMGWAEASTYDYWGQGTQVTVSS

>  <Recorded Value>
binds

$$$$
